test system: COLO 205 colon; assay: NCI-60 one-dose screen, 48 h (100 = growth as untreated, 0 = no growth, -100 = all killed); conditions: 10 µM unless noted
The panel holds about 83,000 compounds, 20% with a hit somewhere; the sample as a whole holds those more often.
Response field label takes T when growth is strictly below 50% and F in all other cases.

// known answers, use as guide
compound: CC(=O)N1N=C(c2ccc(Nc3nc(Nc4ccc(F)cc4)nc(Nc4ccc(F)cc4)n3)cc2)CC1c1ccc(N(C)C)cc1 (stereo not drawn)
classification: T
--
compound: COc1ccc2c(c1)oc1c(C)c3c(c(C)c12)C(=O)N(CCOS(C)(=O)=O)C3=O
classification: F
--
compound: Cc1ccc(C2CC(c3cccc(Nc4ccncc4)c3)=Nc3c(N)nc(N)nc3N2)cc1 (stereo not drawn)
classification: F
--
compound: O=S(=O)(N=C1C(Cl)=C(Cl)C(=NS(=O)(=O)c2ccccc2)C(Cl)=C1Cl)c1ccccc1
classification: F
--
compound: COc1cc(/C=C/c2cc(/C=C/c3ccc(O)c(OC)c3)n(C(=O)Nc3ccc(Cl)cc3)n2)ccc1O
classification: T

## Task # strict comparison: is reported growth < 50%? input = Cc1ccc(Cc2cnc(NC(=O)/C=C/c3ccc(C)o3)s2)cc1
## Result T

## Task In plain terms, does C=C1C(=O)O[C@H]2[C@H]1CC/C(COC(=O)NCc1ccc(Cn3c(=O)sn(-c4ccc(I)cc4)c3=O)cc1)=C\CC[C@@]1(C)O[C@@H]21 come in under 50% for growth?
## Result T

## Task # TODO verify growth < 50% strictly for this compound: COc1ccc(C/C(C)=C(\c2ccc(Cl)cc2)c2ccc(OCCCN(C)C)cc2)cc1
## Result T

====

tested on: OVCAR-5 ovarian; assay: NCI-60 one-dose screen, 48 h (100 = growth as untreated, 0 = no growth, -100 = all killed); conditions: 10 µM unless noted
Compounds without any hit were thinned out: in the full panel of roughly 83,000, 20% have a hit.
metric: growth (%)
Just the number please, in %, no unit attached.

Example entries begin here.
compound: CC1SC(c2ccccc2O)N(NC(=O)CCC(=O)c2nc3ncccc3[nH]2)C1=O (stereo not given)
uom: %
growth: 107
--
compound: COc1ccc(C2[C@@H](c3ccccc3)C(=O)N2c2cc(OC)c(OC)c(OC)c2)cc1F (stereo not given in full)
uom: %
growth: 65.1
--
compound: O=C1CCCC1[n+]1ccccc1 (stereo not given)
uom: %
growth: 70.5

Lab note: measured growth of C=CC(=O)Nc1cccc(Oc2nccc(Nc3nnc(-c4ccc(Br)cc4)s3)n2)c1 was 95.4

// sample CC1(C)CC[C@]2(CO)CC[C@]3(C)[C@](O)([C@H](O)C[C@@H]4[C@@]5(C)CCCNC(C)(C)[C@@H]5CC[C@]43C)[C@@H]2C1 , its growth was 106

Documented growth of O=C1CCCCN1c1ccc(C2=NCCCN2)cc1 : 95.9

// Nc1c(Cl)cc(/C=C2\C=Cc3ccccc32)cc1Cl : growth value = 102

get_value(item= O=C(/C=C/C12c3ccccc3C(c3ccccc31)C1C(=O)NC(=O)C12)c1ccc(Cl)cc1Cl (stereo not given) , readout=growth) returns 37.6

Per the record, CCN(CC)CCCC(Cc1ccccc1)Nc1c2ccc(Cl)cc2nc2ccc(OC)cc12 (stereo not given) has growth of 71.1

# compound C=CCN=c1sc(-c2ccc3ccccc3c2)cn1NC(=O)c1cc2ccc1CCc1ccc(cc1)CC2 ; its growth = 103
